- Test system: MT4
- assay_summary: Cytotoxicity against human MT4 cells assessed as reduction in cell viability after 3 days by CellTiter-Glo luminescent assay
- Type: cell-based
- condition_context: mt4, 72 h
We begin with a simple list: items and their reported CC50.

Examples with their reported CC50 follow.
CC(C)(O)[C@@H]1CC[C@@](C)([C@H]2[C@@H](O)[C@H](O)[C@@]3(C)[C@@H]4[C@@H](O)C[C@H]5C(C)(C)[C@@H](O[C@@H]6OC[C@@H](O)[C@H](O)[C@H]6O)CC[C@@]56C[C@@]46CC[C@]23C)O1 = > 40 µM
CC(=O)O[C@H]1[C@@H](OC(C)=O)[C@@]2(C)[C@@H]3CC[C@H]4C(C)(C)[C@@H](OC(=O)CCCC(=O)O)CC[C@@]45C[C@@]35CC[C@@]23CO[C@@]2(C(C)(C)O)CC[C@](C)(O2)[C@@H]13 = > 20 µM
CC(=O)O[C@H]1[C@@H](OC(C)=O)[C@@]2(C)[C@@H]3CC[C@H]4C(C)(C)[C@@H](O)CC[C@@]45C[C@@]35CC[C@@]23CO[C@@]2(C(C)(C)O)CC[C@](C)(O2)[C@@H]13 = > 40 µM
CC(=O)O[C@H]1[C@@H]2O[C@@]3(C(C)(C)O)CC[C@](C)(O3)[C@@H]2[C@@]2(CO)CC[C@@]34C[C@@]35CC[C@H](O[C@@H]3OC[C@@H](O)[C@H](O)[C@H]3O)C(C)(C)[C@@H]5CC[C@H]4[C@]12C = > 40 µM
CC(=O)O[C@H]1[C@@H](OC(C)=O)[C@@]2(C)[C@@H]3CC[C@H]4C(C)(C)[C@@H](OC(=O)CC(C)C(=O)O)CC[C@@]45C[C@@]35CC[C@@]23CO[C@@]2(C(C)(C)O)CC[C@](C)(O2)[C@@H]13 (stereo partly specified) = > 20 µM

# evaluate next
CC50 for MT4 with input `Cc1cn([C@H]2C[C@H](N=[N+]=[N-])[C@@H](CO)O2)c(=O)[nH]c1=O` equals 77.5 µM

Reference source: ChEMBL document CHEMBL4316590
